Biological target: T1, rat NPRA (rat, UniProt P18910 29-1057)
T1 sequence (looked up): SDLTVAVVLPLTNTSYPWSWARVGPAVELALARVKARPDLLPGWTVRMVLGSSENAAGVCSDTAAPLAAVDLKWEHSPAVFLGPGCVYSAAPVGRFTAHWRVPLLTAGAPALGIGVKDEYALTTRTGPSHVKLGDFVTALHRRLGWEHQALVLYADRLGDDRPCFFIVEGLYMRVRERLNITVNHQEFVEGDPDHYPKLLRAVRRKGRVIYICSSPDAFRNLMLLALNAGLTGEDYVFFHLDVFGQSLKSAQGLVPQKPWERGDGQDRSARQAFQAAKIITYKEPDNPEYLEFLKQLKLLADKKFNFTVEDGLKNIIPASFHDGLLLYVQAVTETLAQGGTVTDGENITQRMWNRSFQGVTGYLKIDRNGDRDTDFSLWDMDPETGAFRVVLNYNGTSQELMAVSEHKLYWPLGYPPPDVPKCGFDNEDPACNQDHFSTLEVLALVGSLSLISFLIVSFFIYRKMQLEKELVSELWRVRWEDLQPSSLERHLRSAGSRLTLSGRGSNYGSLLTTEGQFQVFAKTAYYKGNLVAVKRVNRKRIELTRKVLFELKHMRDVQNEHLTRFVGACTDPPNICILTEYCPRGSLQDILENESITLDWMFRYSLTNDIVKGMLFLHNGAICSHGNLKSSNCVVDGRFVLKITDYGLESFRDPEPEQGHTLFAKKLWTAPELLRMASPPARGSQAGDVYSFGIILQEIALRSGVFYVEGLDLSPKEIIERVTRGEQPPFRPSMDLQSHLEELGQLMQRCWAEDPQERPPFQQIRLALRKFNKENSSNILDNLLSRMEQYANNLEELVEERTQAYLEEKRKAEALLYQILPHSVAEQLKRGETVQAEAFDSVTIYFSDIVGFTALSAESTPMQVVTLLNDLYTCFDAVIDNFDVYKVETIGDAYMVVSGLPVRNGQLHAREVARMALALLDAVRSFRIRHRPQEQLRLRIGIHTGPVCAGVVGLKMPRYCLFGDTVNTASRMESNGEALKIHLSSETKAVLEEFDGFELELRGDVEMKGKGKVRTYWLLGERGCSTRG
Assay: cell-based or functional assay
Numbered stars: 1 amine (or outer) side, 2 acyl side, 3 side chain; on linkers, the order of the positions; unused ones are H or OH. Bridge positions count the residues as written; N and C are the ends. Square brackets hold non-standard residues; d marks the D form. * marks the point of attachment. thioacetal = thioacetal linkage between two cysteines (intrachain bond at the bracketed Cys); C20 diacid = O=C(O)CCCCCCCCCCCCCCCCCCC(=O)*; γGlu = O=C(O)[C@H](CCC(=O)[*:2])N[*:1]; Dap = NC[C@H](N)C(=O)O
Criterion met means recorded cGMP Assay (EC50, pM) w/BSA, rNPRA is 300000 pM or above; Criterion not met means it is below 300000 pM.

Some entries whose results are on file:
1. EKPRSSCFGKRIDRIGHQSGLGCPSFRHSGSPSSGAPPPSG (N-terminus acylated with HOOC-(CH2)18-CO-(γGlu)-; PEG24 after EKEKEKG; thioacetal linkage between the two bracketed Cys; C-terminal amide) [HOOC-(CH2)18-CO-(γGlu)-EKEKEKG-PEG24-EKPRSS[CFGKRIDRIGHQSGLGC]PSFRHSGSPSSGAPPPSG-NH2]
Criterion not met
2. SXRRSSCFGKRIDRIGHYSGLGCPSFRHGGKSSGAPPPS (N-terminus acylated with HOOC-(CH2)18-CO-(γGlu)-; PEG24 after EKEKEKG; 4Pal; thioacetal linkage between the two bracketed Cys; C-terminal amide) [HOOC-(CH2)18-CO-(γGlu)-EKEKEKG-PEG24-S-4Pal-RRSS[CFGKRIDRIGHYSGLGC]PSFRHGGKSSGAPPPS-NH2]
Criterion not met
3. EKPRSSCFGKRIDRIGHYSGLGCPSFRHSGSPSSGAPPPSG (N-terminus acylated with HOOC-(CH2)18-CO-(γGlu)-; (AEEA)8 after EKEKEKG; thioacetal linkage between the two bracketed Cys; C-terminal amide) [HOOC-(CH2)18-CO-(γGlu)-EKEKEKG-(AEEA)8-EKPRSS[CFGKRIDRIGHYSGLGC]PSFRHSGSPSSGAPPPSG-NH2]
Criterion not met
4. SXRRSSCFGKRIDRIGHQSGLGCPSFRHGGKSSGAPPPS (N-terminus acylated with HOOC-(CH2)18-CO-(γGlu)-; PEG24 after EKEKEKG; 4Pal; thioacetal linkage between the two bracketed Cys; C-terminal amide) [HOOC-(CH2)18-CO-(γGlu)-EKEKEKG-PEG24-S-4Pal-RRSS[CFGKRIDRIGHQSGLGC]PSFRHGGKSSGAPPPS-NH2]
Criterion not met
5. {C20 diacid-γGlu}-EKEKEKGEKPRSSCFGG[Dap]IDRIGHYSGLGCPSFRHGSPSSGAPPPS-NH2 (bridge 14-30 via thioacetal) [HOOC-(CH2)18-CO-(γGlu)-EKEKEKGEKPRSS[CFGG-Dap-IDRIGHYSGLGC]PSFRHGSPSSGAPPPS-NH2]
Criterion met
6. SXRRSSCFGKRIDRIGHYSGLGCPSFRHGSGSPSSGAPPPSG (N-terminus acylated with HOOC-(CH2)18-CO-(γGlu)-; (AEEA)6 after EKEKEKG; 4Pal; thioacetal linkage between the two bracketed Cys; C-terminal amide) [HOOC-(CH2)18-CO-(γGlu)-EKEKEKG-(AEEA)6-S-4Pal-RRSS[CFGKRIDRIGHYSGLGC]PSFRHGSGSPSSGAPPPSG-NH2]
Criterion not met

Req: Could you tell me if the measured cGMP Assay (EC50, pM) w/BSA, rNPRA of {C20 diacid-γGlu}-EKEKEKGEKPRSSCFGG[Dap]IDRIGHQSGLGCPSFRHGSPSSGAPPPS-NH2 (bridge 14-30 via thioacetal) [HOOC-(CH2)18-CO-(γGlu)-EKEKEKGEKPRSS[CFGG-Dap-IDRIGHQSGLGC]PSFRHGSPSSGAPPPS-NH2] reaches 300000 pM or more?
Resp: Criterion met

Req: Could you tell me if the measured cGMP Assay (EC50, pM) w/BSA, rNPRA of EKXRSSCFGKRIDRIGHQSGLGCPSFRHGSPSSGAPPPS (N-terminus acylated with HOOC-(CH2)18-CO-(γGlu)-; (AEEA)8 after EKEKEKG; βAla; thioacetal linkage between the two bracketed Cys; C-terminal amide) [HOOC-(CH2)18-CO-(γGlu)-EKEKEKG-(AEEA)8-EK-βAla-RSS[CFGKRIDRIGHQSGLGC]PSFRHGSPSSGAPPPS-NH2] reaches 300000 pM or more?
Resp: Criterion met

Req: Could you tell me if the measured cGMP Assay (EC50, pM) w/BSA, rNPRA of EKPRSSCFGKRIDRIGHYSGLGCPSFRHGSPSSGAPPPS (N-terminus acylated with HOOC-(CH2)18-CO-(γGlu)-; (AEEA)6 after EKEKEKG; thioacetal linkage between the two bracketed Cys; C-terminal amide) [HOOC-(CH2)18-CO-(γGlu)-EKEKEKG-(AEEA)6-EKPRSS[CFGKRIDRIGHYSGLGC]PSFRHGSPSSGAPPPS-NH2] reaches 300000 pM or more?
Resp: Criterion not met

Req: Could you tell me if the measured cGMP Assay (EC50, pM) w/BSA, rNPRA of {C20 diacid-γGlu}-EKEKEKGEKPRSSCFGKRIDRIGRYSGLGCPSFRHGSPSSGAPPPS-NH2 (bridge 14-30 via thioacetal) [HOOC-(CH2)18-CO-(γGlu)-EKEKEKGEKPRSS[CFGKRIDRIGRYSGLGC]PSFRHGSPSSGAPPPS-NH2] reaches 300000 pM or more?
Resp: Criterion met

Req: Could you tell me if the measured cGMP Assay (EC50, pM) w/BSA, rNPRA of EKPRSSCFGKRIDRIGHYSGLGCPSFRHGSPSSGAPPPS (N-terminus acylated with HOOC-(CH2)18-CO-(γGlu)-; PEG24 after EKEKEKG; thioacetal linkage between the two bracketed Cys; C-terminal amide) [HOOC-(CH2)18-CO-(γGlu)-EKEKEKG-PEG24-EKPRSS[CFGKRIDRIGHYSGLGC]PSFRHGSPSSGAPPPS-NH2] reaches 300000 pM or more?
Resp: Criterion not met
